- Test system: hiPSC-CMs (iCell-Cardiomyocytes^2)
- Assay setup: 0.3 µM, 2h
# BR (beating rate), % change from baseline per entry
Supply the numeric figure in %, leaving out any unit text.

1. CC(C)(Sc1cc(C(C)(C)C)c(O)c(C(C)(C)C)c1)Sc1cc(C(C)(C)C)c(O)c(C(C)(C)C)c1 ... 0

Please look up its BR (beating rate), % change from baseline: COc1nc(N)nc2c1ncn2[C@@H]1O[C@H](COP(=O)(N[C@@H](C)C(=O)OCC(C)(C)C)Oc2cccc3ccccc23)[C@@H](O)[C@@]1(C)O (stereo partly shown)
5

Please look up its BR (beating rate), % change from baseline: `COc1cccc2c1C(=O)c1c(O)c3c(c(O)c1C2=O)C[C@@](O)(C(=O)CO)C[C@@H]3O[C@H]1C[C@H](N)[C@H](O)[C@H](C)O1`
2

Please look up its BR (beating rate), % change from baseline: `COc1cc2c(Nc3ccc(Br)cc3F)ncnc2cc1OCC1CCN(C)CC1`
-5

Please look up its BR (beating rate), % change from baseline: `CCN(CC)CCNC(=O)c1c(C)[nH]c(/C=C2\C(=O)Nc3ccc(F)cc32)c1C`
-15

Please look up its BR (beating rate), % change from baseline: `N=C(N)c1ccc(OCCCCCOc2ccc(C(=N)N)cc2)cc1`
-4

Please look up its BR (beating rate), % change from baseline: O=C(O)COCCN1CCN(C(c2ccccc2)c2ccc(Cl)cc2)CC1 (stereo not shown)
2

====

- Tested on: hiPSC-CMs (iCell-Cardiomyocytes^2)
- Assay setup: 10 µM; 72h
Metric name: BR (beating rate), % change from baseline (%)
Supply the numeric figure in %, leaving out any unit text.

Examples with answers:
1. CC(=O)Oc1ccccc1C(=O)O [Aspirin] ... -9
2. COc1nc(N)nc2c1ncn2[C@@H]1O[C@H](COP(=O)(N[C@@H](C)C(=O)OCC(C)(C)C)Oc2cccc3ccccc23)[C@@H](O)[C@@]1(C)O (some centres unmarked) [BMS-986094] ... 32
3. CC1(C)S[C@@H]2[C@H](NC(=O)[C@H](N)c3ccc(O)cc3)C(=O)N2[C@H]1C(=O)O [Amoxicillin] ... -1
4. CC(C)(Sc1cc(C(C)(C)C)c(O)c(C(C)(C)C)c1)Sc1cc(C(C)(C)C)c(O)c(C(C)(C)C)c1 [Probucol] ... 26

Please look up its BR (beating rate), % change from baseline: C[C@H](CS)C(=O)N1CCC[C@H]1C(=O)O [Captopril]
-10

====

- System: hiPSC-CMs (iCell-Cardiomyocytes^2)
- Assay summary: MEA impedance (cytotoxicity readout) in hiPSC-CMs
- Assay setup: 0.1 µM, 48h
Metric name: Imp (impedance), % change from baseline (%)
Supply the numeric figure in %, leaving out any unit text.

1. CCN(CC)CCNC(=O)c1c(C)[nH]c(/C=C2\C(=O)Nc3ccc(F)cc32)c1C [Sunitinib] ... -7
2. COc1cccc2c1C(=O)c1c(O)c3c(c(O)c1C2=O)C[C@@](O)(C(=O)CO)C[C@@H]3O[C@H]1C[C@H](N)[C@H](O)[C@H](C)O1 [Doxorubicin] ... -20
3. N=C(N)c1ccc(OCCCCCOc2ccc(C(=N)N)cc2)cc1 [Pentamidine] ... -5
4. Cc1cn(-c2cc(NC(=O)c3ccc(C)c(Nc4nccc(-c5cccnc5)n4)c3)cc(C(F)(F)F)c2)cn1 [Nilotinib] ... 4
5. O=C(O)COCCN1CCN(C(c2ccccc2)c2ccc(Cl)cc2)CC1 (stereo not drawn) [Cetirizine] ... -7

Could you now look at the following compound, please?
Please look up its Imp (impedance), % change from baseline: COc1cc2c(Nc3ccc(Br)cc3F)ncnc2cc1OCC1CCN(C)CC1 [Vandetanib]
-7
